System: HepG2-A16-CD81EGFP cells
Rule: HepG2 viability signal, 1 uM, repeat 2 below 90% gives true, anything at or above gives false.

compound	system-name	label-value
CCCN1C(CC(C)C)=N[S+](=O)([O-])c2cc(NC(=O)c3ccco3)ccc21	HepG2-A16-CD81EGFP cells	false

query: hey, is HepG2 viability signal, 1 uM, repeat 2 for Cc1ccccc1[S+](=O)([O-])N1CCCC(CCC(=O)NCCN(C)C2CCCCC2)C1 (centres unmarked) lower than 90% or not?
result: false

query: hey, is HepG2 viability signal, 1 uM, repeat 2 for COc1ccc(OC)c(NC(=O)c2ccc3c(c2)N([S+](=O)([O-])c2ccccc2)CC3)c1 lower than 90% or not?
result: false

query: hey, is HepG2 viability signal, 1 uM, repeat 2 for O=C(CCCCCCC(=O)Nc1ccccc1)NO lower than 90% or not?
result: true
